Ref: patent US6936602B1

Task for the reader: assign each of the following compounds its reported melting point.

{"compound": "CCOCCCOc1ccc(-c2ccc3c(c2)C=C(C(=O)Nc2ccc(CN(C)C4CCOCC4)cc2)CCN3C)cc1 [Compound 13]", "melting point": "98 to 100 °C"}
{"compound": "CCOCCOc1ccc(-c2ccc3c(c2)C=C(C(=O)Nc2ccc(CN(C)C4CCOCC4)cc2)CCN3C=O)cc1Cl [Compound 21]", "melting point": "198 to 200 °C"}
{"compound": "CCCCOCCOc1ccc(-c2ccc3c(c2)C=C(C(=O)Nc2ccc(CN(C)C4CCOCC4)cc2)CCN3CC2CCCCC2)cc1 [Compound 34]", "melting point": "115 to 117 °C"}
{"compound": "CCCCOCCOc1ccc(-c2ccc3c(c2)C=C(C(=O)Nc2ccc(CN(C)C4CCOCC4)cc2)CCN3)cc1 [Compound 28]", "melting point": "119 to 123 °C"}
{"compound": "CCOCCN(CC)c1ccc(-c2ccc3c(c2)C=C(C(=O)Nc2ccc(CN(C)C4CCOCC4)cc2)CCN3C=O)cc1 [Compound 5]", "melting point": "162 to 164 °C"}

Provide each entry's melting point from the list below.
1. CCOCCN(C)c1ccc(-c2ccc3c(c2)C=C(C(=O)Nc2ccc(CN(C)C4CCOCC4)cc2)CCN3C=O)cc1 [Compound 4]
2. CCCCOCCOc1ccc(-c2ccc3c(c2)C=C(C(=O)Nc2ccc(CN(C)C4CCOCC4)cc2)CCN3CC2CC2)cc1 [Compound 35]

Result:
["157 to 158 °C", "92 to 94 °C"]

---

# test-target: human CCR5 (Homo sapiens)
# Construct: expressed in transfected cells
# Sequence (P51681 whole entry): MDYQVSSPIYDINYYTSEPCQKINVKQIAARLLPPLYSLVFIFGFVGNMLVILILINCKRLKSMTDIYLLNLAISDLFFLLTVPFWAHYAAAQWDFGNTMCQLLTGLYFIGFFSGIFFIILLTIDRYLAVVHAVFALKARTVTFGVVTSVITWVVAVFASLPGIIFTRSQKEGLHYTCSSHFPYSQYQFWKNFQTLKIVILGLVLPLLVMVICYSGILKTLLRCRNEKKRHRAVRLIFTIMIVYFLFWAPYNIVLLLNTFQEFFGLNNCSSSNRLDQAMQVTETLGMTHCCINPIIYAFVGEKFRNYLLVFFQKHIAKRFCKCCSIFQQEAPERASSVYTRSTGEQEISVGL
# procedure-summary: Evaluation of test compounds based on CCR5 antagonistic activity: inhibition of [125I]-RANTES binding to CCR5/CHO cells
# setup-conditions: Test Compound 1 μM, 100 pM [125I]-RANTES, room temperature for 40 minutes, read-out: Inhibitory Rate (%)
quantity-name: inhibition at 1 µM (%)
Numbers only, in %.

The cases that follow already have their inhibition at 1 µM on record.
{"molecule": "CCCCOCCOc1ccc(-c2ccc3c(c2)C=C(C(=O)Nc2ccc(CN(C)C4CCOCC4)cc2)CCN3CCC)cc1 [Compound 27]", "output-unit": "%", "inhibition at 1 µM": 100}
{"molecule": "CCCCOCCOc1ccc(-c2ccc3c(c2)C=C(C(=O)Nc2ccc(CN(C)C4CCCOC4)cc2)CCN3Cc2cc(C)ns2)cc1 (centres unmarked) [Compound 77]", "output-unit": "%", "inhibition at 1 µM": 97}

Provide each entry's inhibition at 1 µM from the list below.
1. CCCOCCOc1ccc(-c2ccc3c(c2)C=C(C(=O)Nc2ccc(CN(C)C4CCOCC4)cc2)CCN3CC)cc1 [Compound 17]
2. CCCCOCCOc1ccc(-c2ccc3c(c2)C=C(C(=O)Nc2ccc(CN(C)C4CCOCC4)cc2)CCN3c2ccccc2)cc1 [Compound 39]
3. C=CCN1CCC(C(=O)Nc2ccc(CN(C)C3CCOCC3)cc2)=Cc2cc(-c3ccc(OCCOCCCC)cc3)ccc21 [Compound 50]
4. CCOCCOc1ccc(-c2ccc3c(c2)C=C(C(=O)Nc2ccc(CN(C)C4CCOCC4)cc2)CCN3C=O)cc1 [Compound 1]
5. CCCOCCOc1ccc(-c2ccc3c(c2)C=C(C(=O)Nc2ccc(CN(C)C4CCOCC4)cc2)CCN3CCC)cc1 [Compound 26]
6. CCCCOCCOc1ccc(-c2ccc3c(c2)C=C(C(=O)Nc2ccc(CN(C)C4CCOCC4)cc2)CCN3Cc2ccsc2)cc1 [Compound 58]
7. CCOCCCOc1ccc(-c2ccc3c(c2)C=C(C(=O)Nc2ccc(CN(C)C4CCOCC4)cc2)CCN3C=O)cc1 [Compound 2]
8. CCCCOCCOc1ccc(-c2ccc3c(c2)C=C(C(=O)Nc2ccc(CN(C)C4CCOCC4)cc2)CCN3c2csc(C)n2)cc1 [Compound 45]

Result:
[99, 98, 100, 93, 100, 99, 96, 100]

Provide each entry's inhibition at 1 µM from the list below.
1. CCOc1cc(-c2ccc3c(c2)C=C(C(=O)Nc2ccc(CN(C)C4CCOCC4)cc2)CCN3C=O)ccc1OCCOC(C)C [Compound 23]
2. CCCOCCOc1ccc(-c2ccc3c(c2)C=C(C(=O)Nc2ccc(CN(C)C4CCOCC4)cc2)CCN3CC(C)C)cc1 [Compound 84]
3. CCOCCOc1ccc(-c2ccc3c(c2)C=C(C(=O)Nc2ccc(CN(C)C4CCOCC4)cc2)CCN3C=O)cc1F [Compound 20]
4. CCCCOCCOc1ccc(-c2ccc3c(c2)C=C(C(=O)Nc2ccc(CN(C)C4CCOCC4)cc2)CCN3CCCOC)cc1 [Compound 104]

Result:
97
97
94
98

---

quantity-name: melting point

Provide each entry's melting point from the list below.
1. CCCCOCCOc1ccc(-c2ccc3c(c2)C=C(C(=O)Nc2ccc(CN(C)C4CCOCC4)cc2)CCN3Cc2ccsc2)cc1 [Compound 58]
2. CCCOCCOc1ccc(-c2ccc3c(c2)C=C(C(=O)Nc2ccc(CN(C)C4CCOCC4)cc2)CCN3CC)cc1 [Compound 17]

Result:
122 to 123 °C
106 to 108 °C

Provide each entry's melting point from the list below.
1. CCCCOCCOc1ccc(-c2ccc3c(c2)C=C(C(=O)Nc2ccc(CN(C)C4CCOCC4)cc2)CCN3Cc2cccc(OCCC)c2)cc1 [Compound 64]
2. CCCOCCOc1ccc(-c2ccc3c(c2)C=C(C(=O)Nc2ccc(CN(C)C4CCOCC4)cc2)CCN3Cc2ccc(OC)cc2)cc1 [Compound 55]
3. CCCCOCCOc1ccc(-c2ccc3c(c2)C=C(C(=O)Nc2ccc(CN(C)C4CCOCC4)cc2)CCN3C)cc1 [Compound 18]
4. CCCCOCCOc1ccc(-c2ccc3c(c2)C=C(C(=O)Nc2ccc(CN(C)C4CCOCC4)cc2)CCN3Cc2ccoc2)cc1 [Compound 62]

Result:
1: 114.5 to 115.5 °C; 2: 160 to 161 °C; 3: 107 to 110 °C; 4: 116 to 117 °C

---

# test-target: human CCR5 (Homo sapiens)
# Construct: expressed in transfected cells
# procedure-summary: Evaluation of test compounds based on CCR5 antagonistic activity: inhibition of [125I]-RANTES binding to CCR5/CHO cells
# setup-conditions: Test Compound 1 μM, 100 pM [125I]-RANTES, room temperature for 40 minutes, read-out: Inhibitory Rate (%)
quantity-name: inhibition at 1 µM (%)
Numbers only, in %.

Provide each entry's inhibition at 1 µM from the list below.
1. CCCCOCCOc1ccc(-c2ccc3c(c2)C=C(C(=O)Nc2ccc(CN(C)C4CCOCC4)cc2)CCN3Cc2cnn(C)c2)cc1
2. CCCCOCCOc1ccc(-c2ccc3c(c2)C=C(C(=O)Nc2ccc(CN(C)C4CCOCC4)cc2)CCN3Cc2c(C)noc2C)cc1
3. CCCCOCCOc1ccc(-c2ccc3c(c2)C=C(C(=O)Nc2ccc(CN(C)C4CCOCC4)cc2)CCN3c2ccc3c(c2)OCO3)cc1

Result:
1. 100
2. 100
3. 100

Provide each entry's inhibition at 1 µM from the list below.
1. CCCCOCCOc1ccc(-c2ccc3c(c2)C=C(C(=O)Nc2ccc(CN(C)C4CCCOC4)cc2)CCN3Cc2cnn(CC)c2)cc1 (stereo not shown)
2. CCCCOCCOc1ccc(-c2ccc3c(c2)C=C(C(=O)Nc2ccc(CN(C)C4CCOCC4)cc2)CCN3Cc2nnn(C)n2)cc1
3. CCCCOCCOc1ccc(-c2ccc3c(c2)C=C(C(=O)Nc2ccc(CN(C)C4CCOCC4)cc2)CCN3CC2CC2)cc1
4. CCCCOCCOc1ccc(-c2ccc3c(c2)C=C(C(=O)Nc2ccc(CN(C)C4CCOCC4)cc2)CCN3Cc2nnnn2C)cc1
5. CCOCCOc1ccc(-c2ccc3c(c2)C=C(C(=O)Nc2ccc(CN(C)C4CCOCC4)cc2)CCN3CC)cc1
6. CCCCOCCOc1ccc(-c2ccc3c(c2)C=C(C(=O)Nc2ccc(CN(C)C4CCOCC4)cc2)CCN3Cc2nnn(CC)n2)cc1
7. C=CCN1CCC(C(=O)Nc2ccc(CN(C)C3CCOCC3)cc2)=Cc2cc(-c3ccc(OCCOCCC)cc3)ccc21

Result:
100
100
100
100
96
100
100

Provide each entry's inhibition at 1 µM from the list below.
1. CCCCOCCOc1ccc(-c2ccc3c(c2)C=C(C(=O)Nc2ccc(CN(C)C4CCOCC4)cc2)CCN3Cc2nccs2)cc1
2. CC(C)OCCOc1ccc(-c2ccc3c(c2)C=C(C(=O)Nc2ccc(CN(C)C4CCOCC4)cc2)CCN3C=O)cc1
3. CCCCOCCOc1ccc(-c2ccc3c(c2)C=C(C(=O)Nc2ccc(CN(C)C4CCOCC4)cc2)CCN3Cc2ccccc2)cc1

Result:
95
96
98

---

quantity-name: melting point

The cases that follow already have their melting point on record.
{"mol-smiles": "CCCOCCOc1ccc(-c2ccc3c(c2)C=C(C(=O)Nc2ccc(CN(C)C4CCOCC4)cc2)CCN3Cc2cccs2)cc1", "melting point": "104.5 to 105.5 °C"}
{"mol-smiles": "CCCCOCCOc1ccc(-c2ccc3c(c2)C=C(C(=O)Nc2ccc(CN(C)C4CCOCC4)cc2)CCN3Cc2cccs2)cc1", "melting point": "84 to 85 °C"}
{"mol-smiles": "CCCOCCN(CC)c1ccc(-c2ccc3c(c2)C=C(C(=O)Nc2ccc(CN(C)C4CCOCC4)cc2)CCN3C=O)cc1", "melting point": "146 to 149 °C"}
{"mol-smiles": "CCCCOCCOc1ccc(-c2ccc3c(c2)C=C(C(=O)Nc2ccc(CN(C)C4CCOCC4)cc2)CCN3Cc2nnnn2C)cc1", "melting point": "132 to 135 °C"}
{"mol-smiles": "CCCOCCOc1ccc(-c2ccc3c(c2)C=C(C(=O)Nc2ccc(CN(C)C4CCOCC4)cc2)CCN3C)cc1", "melting point": "136 to 138 °C"}
{"mol-smiles": "CCCCOCCOc1ccc(-c2ccc3c(c2)C=C(C(=O)Nc2ccc(CN(C)C4CCOCC4)cc2)CCN3Cc2ccccc2OCC)cc1", "melting point": "104.5 to 105.5 °C"}
{"mol-smiles": "CC(C)OCCOc1ccc(-c2ccc3c(c2)C=C(C(=O)N(c2ccc(CN(C)C4CCOCC4)cc2)S(C)(=O)=O)CCN3)cc1", "melting point": "161 to 162 °C"}
{"mol-smiles": "CCOCCOc1ccc(-c2ccc3c(c2)C=C(C(=O)Nc2ccc(CN(C)C4CCOCC4)cc2)CCN3C)cc1", "melting point": "122 to 125 °C"}

Provide each entry's melting point from the list below.
1. CCOc1cc(-c2ccc3c(c2)C=C(C(=O)Nc2ccc(CN(C)C4CCOCC4)cc2)CCN3C=O)ccc1OCCOC(C)C
2. CC(C)OCCOc1ccc(-c2ccc3c(c2)C=C(C(=O)Nc2ccc(CN(C)C4CCOCC4)cc2)CCN3C=O)cc1
3. CCCCOCCOc1ccc(-c2ccc3c(c2)C=C(C(=O)Nc2ccc(CN(C)C4CCOCC4)cc2)CCN3Cc2ccccc2)cc1
4. CCOCCOc1ccc(-c2ccc3c(c2)C=C(C(=O)Nc2ccc(CN(C)C4CCOCC4)cc2)CCN3C=O)cc1
5. CCCCOCCOc1ccc(-c2ccc3c(c2)C=C(C(=O)Nc2ccc(CN(C)C4CCOCC4)cc2)CCN3c2csc(C)n2)cc1

Result:
1. 117 to 119 °C
2. 187 to 189 °C
3. 127 to 131 °C
4. 192 to 194 °C
5. 115 to 123 °C
